Recorded measurements of reverse-splicing fitness, one per entry
B1: Azoarcus group I ribozyme (parent)
chain: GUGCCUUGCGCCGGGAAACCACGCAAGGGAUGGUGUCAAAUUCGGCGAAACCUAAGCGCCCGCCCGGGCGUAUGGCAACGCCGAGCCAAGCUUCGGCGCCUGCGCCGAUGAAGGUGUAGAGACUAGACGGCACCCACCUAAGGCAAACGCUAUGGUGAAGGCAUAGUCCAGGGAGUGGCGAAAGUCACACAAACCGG

- Variants of: B1
- Method Description: reverse-splicing fitness (ratio to wild type); higher = more active; in vitro selection; Mg2+ level not given
Assay Metric: reverse-splicing fitness

[
  {
    "Changes": "C82A A111G C150U C169U U176G",
    "Measured Number": 0.00623
  },
  {
    "Changes": "C82A A120U A145U C150A C169G U176C",
    "Measured Number": 0.00266
  },
  {
    "Changes": "C82U A111G A120U C150G C169A",
    "Measured Number": 0.00636
  },
  {
    "Changes": "C82A C169U U176C",
    "Measured Number": 0.0153
  },
  {
    "Changes": "A111G A120C C169G U176A",
    "Measured Number": 0.0158
  },
  {
    "Changes": "C82U A111U A120C C150U C169U U176G",
    "Measured Number": 0.00524
  },
  {
    "Changes": "C82A A111C A120G A145U C150A C169A U176G",
    "Measured Number": 0.00621
  },
  {
    "Changes": "C82G A111U A120U C150U",
    "Measured Number": 0.0256
  },
  {
    "Changes": "A120C A145U C150G C169U U176G",
    "Measured Number": 0.00515
  },
  {
    "Changes": "C82U A111U A120U A145U C150A C169A U176A",
    "Measured Number": 0.00233
  },
  {
    "Changes": "C82U A111G A145U C150U C169A U176A",
    "Measured Number": 0.0115
  },
  {
    "Changes": "A145U C150A C169U",
    "Measured Number": 0.0521
  },
  {
    "Changes": "C82U A111U A145U C150A C169A",
    "Measured Number": 0.0089
  }
]
